Items are presented alongside their recorded ED.
organism: Mus musculus; assay: Dose needed to increase the 100% survival of treated animals (mouse), to twice the number of days; type: ADME, organism-based; conditions: in vivo
outcome measure: ED (mg/kg)

compound_string=CC(C)/N=C(N)/N=C(\N)NOCc1ccc(Cl)c(Cl)c1 unit_info=mg/kg comparison_symbol== recorded_number=22
compound_string=CC(C)NC(=N)NC(=N)NOCCCOc1ccc(Cl)c(Cl)c1 unit_info=mg/kg comparison_symbol== recorded_number=16
compound_string=COc1ccc(OCCCO/N=C(N)/N=C(\N)NC(C)C)cc1.Cl unit_info=mg/kg comparison_symbol=> recorded_number=128
compound_string=CC(C)/N=C(N)/N=C(\N)NOCCCOc1ccc2ccccc2c1.Cl unit_info=mg/kg comparison_symbol=< recorded_number=128
compound_string=CC(C)/N=C(N)/N=C(\N)NOCCCOc1ccc(F)cc1 unit_info=mg/kg comparison_symbol== recorded_number=30
compound_string=CC(C)/N=C(N)/N=C(\N)NOCCCOc1ccc(Cl)cc1Cl unit_info=mg/kg comparison_symbol== recorded_number=28
